These measurements were taken from patent US5187082A.

Test system: Streptococcus pyogenes
Assay: In vivo activity against experimentally-induced infection in mice
Settings: doses administered subcutaneously to mice 1 and 4 hours postinfection
Reported ED50 Value values are given for each entry in this list.
Unit mg/kg × 2 implied. Number only.

Before answering, review these 2 worked examples.
compound: CN[C@H](CC(C)C)C(=O)N[C@H]1C(=O)N[C@@H](CC(N)=O)C(=O)N[C@H]2C(=O)N[C@H]3C(=O)N[C@H](C(=O)N[C@H](C(=O)O)c4cc(O)cc(O)c4-c4cc3ccc4O)[C@H](O)c3ccc(c(Cl)c3)Oc3cc2cc(c3O[C@@H]2O[C@H](CO)[C@@H](O)[C@H](O)[C@H]2O[C@H]2C[C@](C)(N)[C@H](O)[C@H](C)O2)Oc2ccc(cc2Cl)[C@H]1O [Vancomycin, vancomycin, reference compound]
reported-result: 0.98
--
compound: CC(C)C[C@H](C(=O)N[C@H]1C(=O)N[C@@H](CC(N)=O)C(=O)N[C@H]2C(=O)N[C@H]3C(=O)N[C@H](C(=O)N[C@H](C(=O)O)c4cc(O)cc(O)c4-c4cc3ccc4O)[C@H](O)c3ccc(c(Cl)c3)Oc3cc2cc(c3O[C@@H]2O[C@H](CO)[C@@H](O)[C@H](O)[C@H]2O[C@H]2C[C@](C)(N)[C@@H](O)[C@H](C)O2)Oc2ccc(cc2Cl)[C@H]1O)N(C)C [Reduced A83850A]
reported-result: 2.30

**Query** # returns recorded ED50 Value (system: Streptococcus pyogenes) for CN[C@H](CC(C)C)C(=O)N[C@H]1C(=O)N[C@@H](CC(N)=O)C(=O)N[C@H]2C(=O)N[C@H]3C(=O)N[C@H](C(=O)N[C@H](C(=O)O)c4cc(O)cc(O)c4-c4cc3ccc4O)[C@H](O)c3ccc(c(Cl)c3)Oc3cc2cc(c3O[C@@H]2O[C@H](CO)[C@@H](O)[C@H](O)[C@H]2O[C@H]2C[C@](C)(N)C(=O)[C@H](C)O2)Oc2ccc(cc2Cl)[C@H]1O [A83850B]
**Result** 2.19

**Query** Kindly state the measured ED50 Value obtained for CC(C)C[C@H](C(=O)N[C@H]1C(=O)N[C@@H](CC(N)=O)C(=O)N[C@H]2C(=O)N[C@H]3C(=O)N[C@H](C(=O)N[C@H](C(=O)O)c4cc(O)cc(O)c4-c4cc3ccc4O)[C@H](O)c3ccc(c(Cl)c3)Oc3cc2cc(c3O[C@@H]2O[C@H](CO)[C@@H](O)[C@H](O)[C@H]2O[C@H]2C[C@](C)(N)C(=O)[C@H](C)O2)Oc2ccc(cc2Cl)[C@H]1O)N(C)C [A83850A] with Streptococcus pyogenes.
**Result** 3.62

**Query** Under Streptococcus pyogenes: ED50 Value value of CN[C@H](CC(C)C)C(=O)N[C@H]1C(=O)N[C@@H](CC(N)=O)C(=O)N[C@H]2C(=O)N[C@H]3C(=O)N[C@H](C(=O)N[C@H](C(=O)O)c4cc(O)cc(O)c4-c4cc3ccc4O)[C@H](O)c3ccc(c(Cl)c3)Oc3cc2cc(c3O[C@@H]2O[C@H](CO)[C@@H](O)[C@H](O)[C@H]2O[C@H]2C[C@](C)(N)[C@@H](O)[C@H](C)O2)Oc2ccc(cc2Cl)[C@H]1O [Reduced A83850B] ?
**Result** 1.36
